Test system: NCI-H226 lung
Run description: NCI-60 one-dose screen, 48 h (100 = growth as untreated, 0 = no growth, -100 = all killed)
Condition context: 10 µM unless noted
This is part of a sample that, as a whole, favours compounds with a hit. Of some 83,000 tested, about 20% had one in any assay.
Rule: growth below 80% gives label 1. Equal to or above 80% gives label 0.

{"columns": ["Compound", "Class label"],
 "data": [
  ["N#Cc1nn(-c2ccccn2)c(N)c1C#N", "label 0"],
  ["Nc1nc(N)c2c(n1)NC(c1cccc(Nc3ccnc4cc(C(F)(F)F)ccc34)c1)CC(c1ccc(Cl)cc1)=N2 (stereo not given)", "label 0"],
  ["O=C1NC(=O)C(=Cc2cc(-c3ccc(Cl)cc3)n(-c3ccccc3)n2)C(=O)N1", "label 0"],
  ["CCc1ccc(Cc2cnc(NC(=O)c3cc(C)oc3C)s2)cc1", "label 1"],
  ["Cc1cccc(CN(Nc2ccccc2)c2ccccc2)n1", "label 0"],
  ["C=CN(C(=O)N1CCN(c2cc3c(cc2F)c(=O)c(C(=O)O)cn3C2CC2)CC1)c1nc(-c2ccc(C)cc2)cs1", "label 1"],
  ["O=C1NCCN1/N=C/c1c(Cl)n(Cc2ccc(Cl)cc2)c2ccccc12", "label 1"],
  ["CCOC(=O)c1c(Nc2nc3ccccc3s2)sc2c1CCC(=O)C2", "label 0"],
  ["N#C/C(=C\\c1cccc2cnccc12)N1N=NC2C=CC=CC21 (stereo not given)", "label 1"]
]}

---

System: HOP-92 NSCLC
Run description: NCI-60 one-dose screen, 48 h
Condition context: 10 µM unless noted
About 83,000 compounds went through this panel and 20% of them were active in at least one assay; those are over-represented in the sample as a whole. The source made the active and inactive calls. How the source made its calls: active means growth percent below 10; inactive means the rest.
Outcome codes: y = active, n = inactive

{"columns": ["Molecule", "Tested target", "Class label"],
 "data": [
  ["O=C(OCC(O)(CO)C(=O)NC12CC3CC(CC(C3)C1)C2)c1ccc(Cl)cc1 (configuration not stated)", "HOP-92 NSCLC", "n"],
  ["Nc1cc(-c2ccc(Cl)cc2)nn1-c1nc(-c2ccc(Br)cc2)cs1", "HOP-92 NSCLC", "n"],
  ["O=C(CN1C(=O)NC2NC(=O)NC21)N/N=C/c1cccc([N+](=O)[O-])c1 (configuration not stated)", "HOP-92 NSCLC", "n"],
  ["Cc1ccc(NC(=O)c2ccc(Nc3ncnc4c3cnn4-c3cccc(F)c3)cc2)cc1", "HOP-92 NSCLC", "n"],
  ["CCC(C)C(N)C(=O)NC(CC(C)C)C(=O)N1CCCC1C(=O)NC(Cc1c[nH]c2ccccc12)C(=O)NC(CCCCN)C(=O)NC(Cc1c[nH]c2ccccc12)C(=O)N1CCCC1C(=O)NC(Cc1c[nH]c2ccccc12)C(=O)NC(Cc1c[nH]c2ccccc12)C(=O)N1CCCC1C(=O)NC(Cc1c[nH]c2ccccc12)C(=O)NC(CCCNC(=N)N)C(=O)NC(CCCNC(=N)N)C(N)=O (configuration not stated)", "HOP-92 NSCLC", "n"],
  ["CN1CCN(Cc2ccc(NC(=O)c3cncc(C#Cc4c(N)ncc5cc(F)ccc45)c3)cc2C(F)(F)F)CC1", "HOP-92 NSCLC", "y"],
  ["CCOC(=O)C1=C(C)N(C)C(=O)N(C)C1c1ccccc1 (configuration not stated)", "HOP-92 NSCLC", "n"]
]}

---

Test system: IGROV1 ovarian
Run description: NCI-60 one-dose screen, 48 h
Condition context: 10 µM unless noted
The panel holds about 83,000 compounds, 20% with a hit somewhere; the sample as a whole holds those more often. The source made the active and inactive calls. The calls were made as follows: active = growth percent below 10; inactive = the rest.
Outcomes: active, inactive

{"columns": ["Compound", "Tested target", "Class label"],
 "data": [
  ["CCOC(=O)c1c(C)c2c(n1Cc1ccccc1)CSc1cc(C#N)c(=O)[nH]c1-2", "IGROV1 ovarian", "inactive"],
  ["CCOC(=O)CC1CSC(N/N=C/c2ccc(O)cc2)=N1 (centres undefined)", "IGROV1 ovarian", "inactive"],
  ["O=C(CSc1nnc(-c2ccc(Cl)c(Cl)c2)n1-c1ccccc1)Nc1ccc(C(=O)/C=C/c2ccc(Cl)cc2)cc1", "IGROV1 ovarian", "inactive"],
  ["COC1CC(O)C2=C(CC3C(/C(C)=C\\CC=C(C)C)CCC3(C)O2)C1=O (centres undefined)", "IGROV1 ovarian", "inactive"],
  ["C=C(C)[C@@H]1CC[C@]2(C(=O)NC(C)=O)CC[C@]3(C)[C@H](CC[C@@H]4[C@@]5(C)CCCNC(C)(C)[C@@H]5CC[C@]43C)[C@@H]12", "IGROV1 ovarian", "inactive"],
  ["COc1ccc(-c2nc3cc(C(=O)NC4CCCCC4)ccc3n2C2CCCCC2)cc1", "IGROV1 ovarian", "inactive"],
  ["N=C(N)c1ccc(-c2ccc(-c3ccccc3)s2)nc1", "IGROV1 ovarian", "inactive"],
  ["CCOC(=O)CC1C(CNC(=O)NC)OC(n2cnc3c(NC(=O)Nc4ccccc4)ncnc32)C1O[Si](C)(C)C(C)(C)C (centres undefined)", "IGROV1 ovarian", "inactive"],
  ["COc1ccc(C2=C/C(=C\\c3ccccc3O)C(=O)N2Cc2ccccc2)cc1", "IGROV1 ovarian", "inactive"],
  ["Cc1ccc(C2=Nc3c(N)nc(N)nc3NC(c3cccc(Nc4ccnc5cc(C(F)(F)F)ccc45)c3)C2)cc1 (centres undefined)", "IGROV1 ovarian", "inactive"],
  ["Cc1ccc(C2(C)NC(=O)N(CC(=O)Nc3cccc(C)c3)C2=O)cc1 (centres undefined)", "IGROV1 ovarian", "inactive"],
  ["C=CC(=O)Nc1ccc2ncnc(Nc3cccc(NS(=O)(=O)CCC)c3Cl)c2c1", "IGROV1 ovarian", "inactive"],
  ["Oc1c(Cl)cc(Cl)c2ccc(CN3CCNCC3)nc12", "IGROV1 ovarian", "inactive"],
  ["Cc1c2ccncc2c(C)c2c1c1ccccc1n2CCCCCC(=O)O", "IGROV1 ovarian", "inactive"],
  ["Cn1cc(-c2csc(-c3cn(C)c4ccc(F)cc34)n2)c2cnccc21", "IGROV1 ovarian", "active"],
  ["COC(=O)c1c(C)nc(C)c2c1C(=O)C(Br)=C(NCCCCO)C2=O", "IGROV1 ovarian", "inactive"],
  ["CCCc1cc(CCC)n2nc(N)nc2n1", "IGROV1 ovarian", "inactive"],
  ["CCN(CC)CCCNC(=O)c1c2c(n3ccccc13)C(=O)c1ncccc1C2=O", "IGROV1 ovarian", "active"],
  ["C=C(CNCCc1ccc(O)cc1)[C@@H]1CC[C@]2(CO)CC[C@]3(C)[C@H](CC[C@@H]4[C@@]5(C)CCC(N)C(C)(C)[C@@H]5CC[C@]43C)[C@@H]12 (some centres undefined)", "IGROV1 ovarian", "active"],
  ["CCCCCCCCNc1ncnc2c1ncn2Cc1nnc2c3ccccc3c(Cl)nn12", "IGROV1 ovarian", "inactive"],
  ["COc1ccc(C(=O)/C=C/Nc2cc(-c3ccccc3)nn2-c2ccccc2)cc1", "IGROV1 ovarian", "inactive"],
  ["COc1cc2c(cc1OC)CC[N+](CCC[N+](C)(C)C)=C2", "IGROV1 ovarian", "inactive"],
  ["C=C(C)[C@@H]1CC[C@]2(COCCCNCCCN)CC[C@]3(C)[C@H](CC[C@@H]4[C@@]5(C)CC[C@H](OCCCN)C(C)(C)[C@@H]5CC[C@]43C)[C@@H]12", "IGROV1 ovarian", "active"],
  ["COc1cc2cc(Oc3ccc(NC(=O)Nc4ccc(Cl)c(Cl)c4)cc3)c(C)nc2cc1OCCN1CCCCC1", "IGROV1 ovarian", "inactive"],
  ["C#CCOc1cccc(-c2ncnc3cc(NC(=O)CCl)ccc23)c1", "IGROV1 ovarian", "active"],
  ["[2H]C([2H])([2H])Oc1c(F)cccc1/C=C/C(=O)/C=C(O)/C=C/c1cccc(F)c1OC([2H])([2H])[2H]", "IGROV1 ovarian", "inactive"],
  ["Cc1ccc(Nc2nc(N)nc(N)c2N=O)cc1Cl", "IGROV1 ovarian", "inactive"],
  ["COc1cccc(-c2nn(-c3ccccc3)cc2-c2ccnc(-c3cccnc3)c2)c1", "IGROV1 ovarian", "inactive"],
  ["COc1ccc(-c2ccc(-c3ccc(C(=N)N)o3)o2)cc1", "IGROV1 ovarian", "inactive"],
  ["CCCCC/C=C/CCC(=O)N[C@H]1[C@H](Oc2c3cc4cc2Oc2ccc(cc2Cl)[C@@H](O[C@@H]2O[C@H](CO)[C@@H](O)[C@H](O)[C@H]2NC(C)=O)[C@@H]2NC(=O)[C@H](NC(=O)[C@@H]4NC(=O)[C@H]4NC(=O)[C@@H](Cc5ccc(c(Cl)c5)O3)NC(=O)[C@@H](N)c3ccc(O)c(c3)Oc3cc(O)cc4c3)c3ccc(O)c(c3)-c3c(O[C@H]4O[C@H](CO)[C@@H](O)[C@H](O)[C@@H]4O)cc(O)cc3[C@H](C(=O)O)NC2=O)O[C@H](CO)[C@H](O)[C@@H]1O", "IGROV1 ovarian", "inactive"],
  ["CCOC(=O)C1=CCC(n2cc(F)c(=O)[nH]c2=O)O1 (centres undefined)", "IGROV1 ovarian", "inactive"],
  ["Cc1ccc2c(n1)C[C@H](C(C)(C)O)CC[C@H]2C", "IGROV1 ovarian", "inactive"],
  ["O=S(=O)(c1ccc(NCSc2nc3ccccc3s2)cc1)c1ccc(NCSc2nc3ccccc3s2)cc1", "IGROV1 ovarian", "inactive"],
  ["COc1cc2ncnc(Nc3ccc(S(=O)(=O)Nc4cc(C)on4)cc3)c2cc1OCCCN1CCOCC1", "IGROV1 ovarian", "inactive"],
  ["CC(C)(C)n1cc(-c2ccnc(NCCNS(=O)(=O)c3cccc4ccccc34)c2)c(-c2cccc(O)c2)n1", "IGROV1 ovarian", "inactive"],
  ["Nc1c(C(=O)c2ccc(Cl)cc2)sc(Nc2ccccc2)c1-c1nc2ccccc2s1", "IGROV1 ovarian", "inactive"],
  ["Nc1ccc(N)c2c1C(=O)c1cccc([N+](=O)[O-])c1C2=O", "IGROV1 ovarian", "inactive"],
  ["FC(F)(F)c1cccc(-c2nnn(Cc3cc(-c4cccc(Cl)c4)no3)n2)c1", "IGROV1 ovarian", "inactive"],
  ["O=C1CC2C=CCN2C=C1NC(=O)c1ccccc1 (centres undefined)", "IGROV1 ovarian", "inactive"]
]}
